Organism: Homo sapiens
Test: Liver toxicity in human assessed as induction of drug-induced liver injury by measuring verified drug-induced liver injury concern status

- smiles entry: "Cc1ccsc1C(=CCCN1CCC[C@@H](C(=O)O)C1)c1sccc1C"
  DILI_Concern: "Ambiguous-Dili-Concern"
- smiles entry: "CCS(=O)(=O)CCn1c([N+](=O)[O-])cnc1C"
  DILI_Concern: "Less-Dili-Concern"
- smiles entry: "O=C(O)P(=O)(O)O"
  DILI_Concern: "Ambiguous-Dili-Concern"
- smiles entry: "CCCN(CCC)CCc1cccc2c1CC(=O)N2"
  DILI_Concern: "Less-Dili-Concern"
- smiles entry: "O=C(O)CCCc1ccc(N(CCCl)CCCl)cc1"
  DILI_Concern: "Less-Dili-Concern"

----------
Species on record: Homo sapiens
Assay: Liver toxicity in human assessed as induction of drug-induced liver injury by measuring verified drug-induced liver injury concern status

- compound: "CC(CN(C)C)CN1c2ccccc2CCc2ccccc21 (centres undefined)"
  DILI_Concern: "Ambiguous-Dili-Concern"
- compound: "c1cnc2cc3c(cc2n1)[C@@H]1CNC[C@H]3C1"
  DILI_Concern: "Less-Dili-Concern"
- compound: "CC(=O)N(O)CCCCCNC(=O)CCC(=O)N(O)CCCCCNC(=O)CCC(=O)N(O)CCCCCN"
  DILI_Concern: "Less-Dili-Concern"
- compound: "COc1cccc(C2(O)CCCCC2CN(C)C)c1 (centres undefined)"
  DILI_Concern: "Ambiguous-Dili-Concern"
- compound: "COc1cc2ncnc(Nc3ccc(F)c(Cl)c3)c2cc1OCCCN1CCOCC1"
  DILI_Concern: "Most-Dili-Concern"
- compound: "COc1ccc2c(c1)c(CC(=O)O)c(C)n2C(=O)c1ccc(Cl)cc1"
  DILI_Concern: "Most-Dili-Concern"
- compound: "C[C@]12COC(=O)C[C@@H]1CC[C@@H]1[C@@H]2CC[C@@]2(C)[C@H]1CC[C@]2(C)O"
  DILI_Concern: "Most-Dili-Concern"
- compound: "O=C(O)c1cn(C2CC2)c2cc(N3CCNCC3)c(F)cc2c1=O"
  DILI_Concern: "Most-Dili-Concern"

----------
Organism: Homo sapiens
Assay: Liver toxicity in human assessed as induction of drug-induced liver injury by measuring severity class index
Starred links: 1 amine or outer side, 2 acyl side, 3 side chain; linkers in the order of their positions; H or OH if unused. Positions of bridges follow the written chain, without caps; N, C: chain ends. Non-standard residues stand in square brackets, D forms with d. Residues, ends and D or L forms follow the SMILES beside them. *: point of attachment. hTyr(3S-OH,4S-OH,3'-OSO3H) = N[C@H](C(=O)O)[C@H](O)[C@@H](O)c1ccc(O)c(OS(=O)(=O)O)c1; Orn(4R-OH,5R-OH) = O=C([C@H](C[C@@H](O)[C@@H](O)N[*:3])N[*:1])[*:2]; Pro(3S-OH,4S-Me) = C[C@H]1CN[C@H](C(=O)O)[C@H]1O; X1 = CCCCCOc1ccc(-c2cc(-c3ccc(C(=O)*)cc3)no2)cc1; Gln(3R-OH) = NC(=O)C[C@@H](O)[C@H](N)C(=O)O; Hyp = O=C(O)[C@@H]1C[C@@H](O)CN1
In this section, each of the compounds is paired with its reported DILI_severity_class.
property measured: DILI_severity_class

- compound: "CCCCCOc1ccc(-c2cc(-c3ccc(C(=O)N[C@H]4C[C@@H](O)[C@@H](O)NC(=O)[C@@H]5[C@@H](O)[C@@H](C)CN5C(=O)[C@H]([C@H](O)CC(N)=O)NC(=O)[C@H]([C@H](O)[C@@H](O)c5ccc(O)c(OS(=O)(=O)O)c5)NC(=O)[C@@H]5C[C@@H](O)CN5C(=O)[C@H]([C@@H](C)O)NC4=O)cc3)no2)cc1 [MICAFUNGIN] (X1-[Orn(4R-OH,5R-OH)]T[Hyp][hTyr(3S-OH,4S-OH,3'-OSO3H)][Gln(3R-OH)][Pro(3S-OH,4S-Me)]; lactam 1-C)"
  property measured: "DILI_severity_class"
  observed result: 7
- compound: "Nc1ncnc2c1ncn2CCOCP(=O)(O)O"
  property measured: "DILI_severity_class"
  observed result: 2
- compound: "C1N2CN3CN1CN(C2)C3.O=C(O)CNC(=O)c1ccccc1 [METHENAMINE HIPPURATE]"
  property measured: "DILI_severity_class"
  observed result: 3
- compound: "Cc1cc(C(=O)NNCc2ccccc2)no1"
  property measured: "DILI_severity_class"
  observed result: 5
- compound: "O=C1CN(/N=C/c2ccc([N+](=O)[O-])o2)C(=O)N1"
  property measured: "DILI_severity_class"
  observed result: 8
- compound: "Nc1ccc(O)c(C(=O)O)c1"
  property measured: "DILI_severity_class"
  observed result: 7
- compound: "CCO[C@@H]1OC(=O)C[C@@H]1NC(=O)[C@@H]1CCCN2C(=O)CC[C@H](NC(=O)c3nccc4ccccc34)C(=O)N12"
  property measured: "DILI_severity_class"
  observed result: 8
- compound: "C#CCN[C@@H]1CCc2ccccc21"
  property measured: "DILI_severity_class"
  observed result: 3
- compound: "O=C(O)CCCCCCNC1c2ccccc2CCc2ccccc21"
  property measured: "DILI_severity_class"
  observed result: 8
- compound: "CC(=O)[C@@]1(O)CC[C@H]2[C@@H]3C[C@H](C)C4=CC(=O)CC[C@]4(C)[C@H]3CC[C@@]21C"
  property measured: "DILI_severity_class"
  observed result: 2
- compound: "O=C(O[C@H]1CN2CCC1CC2)N1CCc2ccccc2[C@@H]1c1ccccc1"
  property measured: "DILI_severity_class"
  observed result: 3
- compound: "CC(C)n1c(/C=C/C(O)CC(O)CC(=O)O)c(-c2ccc(F)cc2)c2ccccc21 (stereo not drawn)"
  property measured: "DILI_severity_class"
  observed result: 3
- compound: "CN(C)CCCC1c2ccccc2Nc2ccc(Cl)cc21 (stereo not drawn)"
  property measured: "DILI_severity_class"
  observed result: 8
- compound: "C#C[C@@]1(OC(C)=O)CC[C@H]2[C@@H]3CCC4=CC(=O)CC[C@@H]4[C@H]3CC[C@@]21C"
  property measured: "DILI_severity_class"
  observed result: 0
- compound: "CNCCCN1c2ccccc2CCc2ccccc21"
  property measured: "DILI_severity_class"
  observed result: 3
- compound: "CC[C@]1(O)C[C@H]2CN(CCc3c([nH]c4ccccc34)[C@@](C(=O)OC)(c3cc4c(cc3OC)N(C=O)[C@H]3[C@@](O)(C(=O)OC)[C@H](OC(C)=O)[C@]5(CC)C=CCN6CC[C@]43[C@@H]65)C2)C1"
  property measured: "DILI_severity_class"
  observed result: 8
- compound: "CC(c1cc2ccccc2s1)N(O)C(N)=O (stereo not drawn)"
  property measured: "DILI_severity_class"
  observed result: 5
- compound: "CC1COc2c(N3CCN(C)CC3)c(F)cc3c(=O)c(C(=O)O)cn1c23 (stereo not drawn)"
  property measured: "DILI_severity_class"
  observed result: 3

----------
Species: Homo sapiens
Test: Liver toxicity in human assessed as induction of drug-induced liver injury by measuring verified drug-induced liver injury concern status
property measured: DILI_Concern

- compound: "COC(=O)[C@H](c1ccccc1Cl)N1CCc2sccc2C1 [CLOPIDOGREL]"
  observed result: "Less-Dili-Concern"
- compound: "Cc1cccc(C)c1OCC(C)N (stereo unspecified) [MEXILETINE]"
  observed result: "Most-Dili-Concern"
- compound: "CC(C)CN(C[C@@H](O)[C@H](Cc1ccccc1)NC(=O)O[C@H]1CCOC1)S(=O)(=O)c1ccc(N)cc1"
  observed result: "Ambiguous-Dili-Concern"
- compound: "CC[C@H](C)[C@@H]1NC(=O)[C@H](Cc2ccc(O)cc2)NC(=O)[C@@H](N)CSSC[C@@H](C(=O)N2CCC[C@H]2C(=O)N[C@@H](CC(C)C)C(=O)NCC(N)=O)NC(=O)[C@H](CC(N)=O)NC(=O)[C@H](CCC(N)=O)NC1=O [OXYTOCIN]"
  observed result: "No-Dili-Concern"
- compound: "CC(C)CN(C[C@@H](OP(=O)(O)O)[C@H](Cc1ccccc1)NC(=O)O[C@H]1CCOC1)S(=O)(=O)c1ccc(N)cc1 [FOSAMPRENAVIR]"
  observed result: "Ambiguous-Dili-Concern"
- compound: "CN1CC[C@]23c4c5ccc(O)c4O[C@H]2C(=O)CC[C@@]3(O)[C@H]1C5 [OXYMORPHONE]"
  observed result: "No-Dili-Concern"
- compound: "CCC(=O)NCC[C@@H]1CCc2ccc3c(c21)CCO3 [RAMELTEON]"
  observed result: "No-Dili-Concern"
- compound: "CCN(CCO)CCCC(C)Nc1ccnc2cc(Cl)ccc12 (stereo unspecified) [HYDROXYCHLOROQUINE]"
  observed result: "Less-Dili-Concern"
- compound: "CCOC(=O)CN[C@@H](C(=O)N1CC[C@H]1C(=O)NCc1ccc(/C(N)=N\\O)cc1)C1CCCCC1 [XIMELAGATRAN]"
  observed result: "Most-Dili-Concern"
- compound: "Cc1ccc(Cl)c(Nc2ccccc2C(=O)O)c1Cl [MECLOFENAMIC ACID]"
  observed result: "Ambiguous-Dili-Concern"
- compound: "CC(NC(C)(C)C)C(=O)c1cccc(Cl)c1 (stereo unspecified) [BUPROPION]"
  observed result: "Less-Dili-Concern"
- compound: "COC(=O)N[C@H](C(=O)N[C@@H](Cc1ccccc1)[C@@H](O)CN(Cc1ccc(-c2ccccn2)cc1)NC(=O)[C@@H](NC(=O)OC)C(C)(C)C)C(C)(C)C [ATAZANAVIR]"
  observed result: "Less-Dili-Concern"
- compound: "O=P1(N(CCCl)CCCl)NCCCO1 (stereo unspecified) [CYCLOPHOSPHAMIDE ANHYDROUS]"
  observed result: "Less-Dili-Concern"
- compound: "C[C@]12C/C(=C/O)C(=O)C[C@@H]1CC[C@@H]1[C@@H]2CC[C@@]2(C)[C@H]1CC[C@]2(C)O [OXYMETHOLONE]"
  observed result: "Most-Dili-Concern"
- compound: "CN(C)CCC(c1ccc(Br)cc1)c1ccccn1 (stereo unspecified) [BROMPHENIRAMINE]"
  observed result: "No-Dili-Concern"
- compound: "CC(C)c1nc(CN(C)C(=O)N[C@H](C(=O)N[C@@H](Cc2ccccc2)C[C@H](O)[C@H](Cc2ccccc2)NC(=O)OCc2cncs2)C(C)C)cs1 [RITONAVIR]"
  observed result: "Most-Dili-Concern"
- compound: "CC1=C(/C=C/C(C)=C/C=C/C(C)=C\\C(=O)O)C(C)(C)CCC1 [ISOTRETINOIN]"
  observed result: "Most-Dili-Concern"
- compound: "NNCCc1ccccc1 [PHENELZINE]"
  observed result: "Less-Dili-Concern"
- compound: "CC(CCc1ccccc1)NCC(O)c1ccc(O)c(C(N)=O)c1 (stereo unspecified) [LABETALOL]"
  observed result: "Most-Dili-Concern"
- compound: "Cc1nc(C)c2c(n1)N(Cc1ccc(-c3ccccc3-c3nnn[nH]3)cc1)C(=O)CC2 [TASOSARTAN]"
  observed result: "Most-Dili-Concern"
- compound: "Cc1cn([C@H]2C[C@H](N=[N+]=[N-])[C@@H](CO)O2)c(=O)[nH]c1=O [ZIDOVUDINE]"
  observed result: "Most-Dili-Concern"
- compound: "Nc1cc(N2CCCCC2)nc(N)[n+]1[O-] [MINOXIDIL]"
  observed result: "No-Dili-Concern"
- compound: "CC(=O)NC[C@H]1CN(c2ccc(N3CCOCC3)c(F)c2)C(=O)O1 [LINEZOLID]"
  observed result: "Less-Dili-Concern"
- compound: "CO[C@H]1/C=C/O[C@@]2(C)Oc3c(C)c(O)c4c(c3C2=O)C2=NC3(CCN(CC(C)C)CC3)NC2=C(NC(=O)/C(C)=C\\C=C\\[C@H](C)[C@H](O)[C@@H](C)[C@@H](O)[C@@H](C)[C@H](OC(C)=O)[C@@H]1C)C4=O [RIFABUTIN]"
  observed result: "Less-Dili-Concern"
- compound: "CC(C)Cc1ccc(C(C)C(=O)O)cc1 (stereo unspecified) [IBUPROFEN]"
  observed result: "Less-Dili-Concern"
- compound: "CN1C[C@H](C(=O)N[C@]2(C)O[C@@]3(O)[C@@H]4CCCN4C(=O)[C@H](Cc4ccccc4)N3C2=O)C[C@@H]2c3cccc4[nH]cc(c34)C[C@H]21 [DIHYDROERGOTAMINE]"
  observed result: "No-Dili-Concern"
- compound: "CONC(=N)c1ccc(-c2ccc(-c3ccc(C(=N)NOC)cc3)o2)cc1 [PAFURAMIDINE]"
  observed result: "Most-Dili-Concern"
- compound: "CC(=O)Oc1ccc(C(c2ccc(OC(C)=O)cc2)c2ccccn2)cc1 [BISACODYL]"
  observed result: "No-Dili-Concern"
- compound: "NC[C@@H]1O[C@H](O[C@H]2[C@@H](O)[C@H](O[C@@H]3[C@@H](O)[C@H](N)C[C@H](N)[C@H]3O[C@H]3O[C@H](CO)[C@@H](O)[C@H](O)[C@H]3N)O[C@@H]2CO)[C@H](N)[C@@H](O)[C@@H]1O [PAROMOMYCIN]"
  observed result: "No-Dili-Concern"
- compound: "Clc1ccccc1CN1CCc2sccc2C1 [TICLOPIDINE]"
  observed result: "Most-Dili-Concern"
- compound: "CCN(CC)CCCC(C)Nc1ccnc2cc(Cl)ccc12 (stereo unspecified) [CHLOROQUINE]"
  observed result: "Less-Dili-Concern"
